B1: SETD8 (parent)
chain: FVVEYHGDLIEITDAKKREALYAQ

- Variants of: B1
- assay.comment: protein stability index of a GFP-peptide fusion (GPS, HEK-293T) (PSI 1-6); higher = more stable;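 note: lentivirally expressed fusions sorted by FACS into six bins by GFP to DsRed ratio, PSI derived from sequencing read proportions per bin multiplied by bin number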
- setup.conditions: c terminus: a fixed tail appended
Entry flag: Met if protein stability index reaches 2; Not met if it does not.

>>> df
   alteration    group
0         Y5M      Met
1         H6D      Met
2        R18Y      Met
3        K17H  Not met
4         H6Y      Met
5        A20Q  Not met
6         V2S      Met
7        I10L      Met
8         G7V  Not met
9        Q24D  Not met
